Field: inhibition. Provide a value for each of the molecules that follow.
- Test system: hexokinase 1 [Trypanosoma brucei]
- ASSAY EXPLANATION: TbHK1 enzyme activity blockers – biochemical, G6PDH-coupled NADH absorbance, MLSCN library, primary screen (AID 1430)
- CONDITION SUMMARY: recombinant TbHK1, G6PDH-coupled NADH A340; at 10 µM; hits give high values
The whole screen tested about 220,000 compounds, of which about 240 (0.11%) were called active. This is one part of a sample in which actives are shown more often than they occur.
Answers are plain numbers, in %.

MOLECULE	VALUE MEASURED
Cc1ccc(Nc2nc(CSc3nnc(-c4ccncc4)n3-c3ccccc3C)cs2)cc1	-6.74
COc1ccc(/C=N/NS(=O)(=O)c2ccc(NC(C)=O)cc2)cc1	-17.4
CC(=O)NC(Cc1ccc(F)c(F)c1)C(=O)NC1CCN(c2nnnn2-c2ccccc2)CC1 (configuration not stated)	-4.26
CSc1nnnn1-c1c(C)cc(C)cc1C	-0.934
Cc1ccc(CNC(=O)CC2Sc3ccccc3NC2=O)cc1 (configuration not stated)	-3.22

I have 8 molecules here; please give me inhibition for each one.
1. CCOC(=O)C1(c2ccccc2)NC(c2ccc(N(C)C)cc2)C2C(=O)N(C)C(=O)C21 (configuration not stated)
2. Cc1cc(OC(=O)c2ccccc2)c([N+](=O)[O-])c(=O)[nH]1
3. O=C(Cn1cnc([N+](=O)[O-])n1)NCCc1ccccc1
4. Cc1ccc2[nH]c(C)c(CCNC(=O)NC3CCCCC3)c2c1
5. COc1ccc(C(C(=O)NC(C)(C)C)N(C(=O)Cn2nnc3ccccc32)c2ccc(C(C)=O)cc2)cc1O (configuration not stated)
6. CCOCCCNC(=O)C(NC(=O)c1ccccc1O)c1ccccc1 (configuration not stated)
7. N#Cc1c(N)nc2c(c1N)CC(C(F)(F)F)O2 (configuration not stated)
8. COc1ccc(NC(=O)c2cc3nc(-c4ccccc4)cc(C)n3n2)cc1OC

Result string:
-3.65
-5.67
-4.47
-1.75
-2.52
-9.74
4.59
-16.7

Fill in inhibition for each of the 8 molecules listed.
1. COC(=O)CN1C(=O)N/C(=C/c2ccc(OC)c(C)c2OC)C1=O
2. O=C(OCC(=O)N1CCOCC1)c1ccc(N2CCOCC2)c([N+](=O)[O-])c1
3. OCCCNC(c1ccccc1)c1ccc(O)cc1 (configuration not stated)
4. O=C(NC(=S)Nc1cc(C(F)(F)F)ccc1N1CCOCC1)c1ccc(-c2cccc(Cl)c2)o1
5. C=CCn1c(COc2ccc(F)cc2)nnc1SCC(=O)Nc1cccc(S(N)(=O)=O)c1
6. COc1ccc(CC(=O)NCc2nnc(SCC(=O)Nc3nccs3)n2C)cc1
7. O=C(Nc1ccccc1)c1cc2ccccc2[nH]1
8. O=C(O)C(c1ccccc1)C1(O)CCCCC1 (configuration not stated)

Result string:
-28.4
-6.48
0.734
-33.5
-3.84
-2.5
-8.21
-7.32

Query string: Find the recorded inhibition belonging to CC1(C)CC(=O)C=C(NCCCN2CCCC2=O)C1 and report it.
Result string: 0.498

* * *

- Tested on: hexokinase 1 [Trypanosoma brucei]
- ASSAY EXPLANATION: TbHK1 enzyme activity blockers – biochemical, G6PDH-coupled NADH absorbance, MLSCN library, primary screen (AID 1430)
- CONDITION SUMMARY: recombinant TbHK1, G6PDH-coupled NADH A340; at 10 µM
The campaign covered roughly 220,000 compounds. About 240 (0.11%) were called active.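 Rule for the calls: active = inhibition of 50% or more in the single-dose primary screen; inactive = inhibition below 50%.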 What follows is part of a selection rich in actives, with near analogues and random picks from the rest.
Hi! Could you answer with just one of these? active, inactive

MOLECULE	ANSWER LABEL
Cc1ccc(C(=O)N/C(=C\c2ccco2)C(=O)N2CCSCC2)cc1C	inactive

Query string: Answer briefly: the call reported for Cc1cc2nc(SCCN3CCOCC3)[nH]c2cc1C in this assay.
Result string: inactive

Query string: Next molecule: C#CCOCCOCCOCCNc1nc(N2CCN(C(=O)[C@H](CCC(=O)O)n3cc(C(N)CO)nn3)CC2)nc(N2CCN(C(=O)[C@H](Cc3ccc(O)cc3)n3cc(C(N)[C@H](C)CC)nn3)CC2)n1 (stereo partly drawn)
Result string: inactive

Query string: Input COc1ccc(C(C#N)Nc2ccccc2C)cc1 (stereo not drawn)
Result string: inactive

Query string: Queued: O=C(O)c1ccc(N=NN2CCOCC2)cc1
Result string: inactive

Query string: Next molecule: O=C(Oc1ccccc1Cl)c1ccc(N2CCOCC2)c([N+](=O)[O-])c1
Result string: inactive

Query string: Check CC(C)CNC(=O)COC(=O)/C=C/c1ccco1 too.
Result string: inactive

Query string: Similarly, CC1(C)CC(=O)C=C(NCCCNC2CCCCC2)C1 ?
Result string: active

Query string: Repeat for the following molecule: Cc1ccc(NC(=O)Cn2c(=O)n(CCC(=O)NC3CCN(Cc4ccccc4)CC3)c(=O)c3ccccc32)cc1
Result string: inactive

* * *

- Tested on: hexokinase 1 [Trypanosoma brucei]
- ASSAY EXPLANATION: TbHK1 enzyme activity blockers – biochemical, G6PDH-coupled NADH absorbance, MLSCN library, primary screen (AID 1430)
- CONDITION SUMMARY: recombinant TbHK1, G6PDH-coupled NADH A340; at 10 µM; hits give high values
About 240 (0.11%) of roughly 220,000 compounds were called active. This excerpt belongs to a sample that is enriched for actives.
Exercise: state measured inhibition for each of the compounds provided.
Give bare numbers, in %.

COMPOUND	UNITS TEXT	inhibition
Cc1nc(-c2ccc(Cl)cc2)sc1C(=O)NN	%	-13
O=C1NC(c2cccc(Cl)c2)Nc2ccccc21 (stereo unspecified)	%	-2.98
C/C(=N/NC(=O)CSc1ccccn1)c1ccc([N+](=O)[O-])cc1	%	-9.77
O=C(NNC(=O)c1csc(-c2cccnc2)n1)Nc1ccc(Cl)cc1	%	1.85
Cc1ccc(C)c(Cn2nnc3c(=O)[nH]c(C(=O)Nc4ccc(F)cc4)nc32)c1	%	1.66
COc1ccccc1NC(=O)C1CCCN(c2cc(C)nc3ncnn23)C1 (stereo unspecified)	%	-1.1

Could you tell me inhibition for each of these compounds? They are listed below.
1. COC(=O)c1cccc([N+](=O)[O-])c1CS(=O)(=O)c1ccc(C)cc1
2. CC(O)c1nc2c(c(=O)n(C)c(=O)n2C)n1C (stereo unspecified)
3. N#Cc1ccc(Oc2ccc(C(F)(F)F)cc2NC(=O)c2ccc(F)cc2)cc1

Result string:
1. -5.68
2. -12.1
3. -2.47

# per-item lookup of inhibition; items listed below
1. Cc1ccc(-n2c(C)cc(C(=O)CSc3nnc4ccccn34)c2C)cc1
2. CC(C)(C)c1ccc(C(=O)NCc2nnc(SCC(=O)N3CCCc4ccccc43)n2-c2ccccc2)cc1

Result string:
1: -7.8; 2: -3.07

* * *

So I've got a bunch of compounds here, and I need their inhibition values.
- System: hexokinase 1 [Trypanosoma brucei]
- ASSAY EXPLANATION: TbHK1 enzyme activity blockers – biochemical, G6PDH-coupled NADH absorbance, MLSCN library, primary screen (AID 1430)
- CONDITION SUMMARY: recombinant TbHK1, G6PDH-coupled NADH A340; at 10 µM; hits give high values
In all, about 220,000 compounds went through this assay and about 240 (0.11%) were called active. The list comes from a sample in which actives are over-represented; it also holds close analogues and randomly drawn compounds.
Numbers only, in %.

Provide inhibition for all items below, preserving their order.
1. CCC(CC)C(=O)N1CCN(c2cccc(C)c2C)CC1
2. O=C(NCCN1CCOCC1)c1cc(Sc2cccc(Cl)c2)nc2ccccc12
3. CC1(C)OC(=O)C(=CNC(CO)C(=O)O)C(=O)O1 (centres undefined)

Result string:
-4.04
-12.6
2.5

List the reported inhibition of each compound below.
1. Cc1ccc(-c2nc(SCC(=O)Nc3ccccc3OC(F)F)c3c(C)c(C(=O)O)sc3n2)cc1
2. COc1cc(CN(C)Cc2nc3cc(C(F)(F)F)ccc3c(=O)[nH]2)ccc1OC(F)F
3. COC(=O)c1ccc(/C=N/OCC(=O)Nc2cc(F)ccc2F)cc1
4. COC(=O)c1ccc(NC(=S)NN2CCOCC2)cc1
5. O=S(=O)(NCc1ccco1)c1cnc(Cl)c(Cl)c1
6. Cc1ccc(Oc2nc(-c3ccccn3)nc3ccccc23)cc1
7. CSc1ccccc1NC(=O)Cc1ccc(Br)cc1
8. CC(C)(C)NC(=O)NCc1ccco1

Result string:
1: -36.7; 2: 1.94; 3: -4.64; 4: 0.284; 5: 8.75; 6: -12.7; 7: 32.7; 8: 3.59

For each of the items listed, what is its inhibition?
1. COC(=O)NNC(=O)C1CCC(C)CC1 (centres undefined)
2. CC1(C)CC(=O)C=C(NCCN2CCNCC2)C1
3. CCOC(=O)C(=O)Nc1nc(-c2ccccc2)c(CC)s1
4. CC1CCN(S(=O)(=O)c2ccc(S(=O)(=O)NCc3cccnc3)cc2)CC1
5. CCNC(=O)CC1C(=O)N(c2ccc(F)cc2)C(=O)N1Cc1cccs1 (centres undefined)
6. COc1ccccc1NC(=O)CC(NCCN(C)C)C(=O)O (centres undefined)
7. O=C(CN1C(=O)C2C3C=CC(C3)C2C1=O)NCCc1ccccc1Cl (centres undefined)
8. CCc1ccc(NC2Nc3cc(C)nn3S2)cc1 (centres undefined)

Result string:
1: -0.712; 2: -12.2; 3: -8.25; 4: 0.223; 5: -6.58; 6: -1.3; 7: 57.8; 8: -2.97

For each of the compounds below, note its inhibition.
1. O=C(/C=C/c1ccccc1)Oc1coc(CSc2ncccn2)cc1=O
2. COC(=O)c1c(NC(=O)COC(=O)[C@@H](NS(=O)(=O)c2ccccc2)C(C)C)sc2c1CCC2
3. NC(=O)c1ccccc1N=Cc1ccc2ccccc2c1
4. O=C(Nc1cccc2c1N(C(=O)c1ccco1)CCC2)c1ccco1
5. CN(C)CCCO/N=C(\c1ccccc1)c1ccncc1
6. COC(=O)Nc1ccc(S(=O)(=O)N2CCN(CCN3C(=O)C4C5C=CC(C5)C4C3=O)CC2)cc1 (centres undefined)

Result string:
1: -1.22; 2: -13.7; 3: 27.1; 4: -6.72; 5: -6.34; 6: 1
